This collection of values is drawn from patent US8026218.

- target_or_test_system: human δ opioid receptor (human, UniProt P41143 1-372)
- Sequence (P41143 whole entry, stated change not applied): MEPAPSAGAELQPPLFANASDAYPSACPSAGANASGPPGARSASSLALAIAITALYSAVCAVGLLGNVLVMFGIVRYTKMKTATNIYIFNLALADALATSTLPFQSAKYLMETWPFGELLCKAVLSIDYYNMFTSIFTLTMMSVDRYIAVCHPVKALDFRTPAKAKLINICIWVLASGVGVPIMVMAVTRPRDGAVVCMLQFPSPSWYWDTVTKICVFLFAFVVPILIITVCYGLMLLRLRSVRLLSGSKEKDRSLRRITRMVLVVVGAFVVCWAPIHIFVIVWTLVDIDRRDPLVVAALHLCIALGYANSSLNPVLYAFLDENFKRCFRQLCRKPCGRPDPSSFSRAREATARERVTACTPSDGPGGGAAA
- measurement_notes: cell-based or functional assay
Square brackets hold non-standard residues; d marks the D form. Ends that are not written are not given here. * marks the point of attachment. OBzl(3,5-(CF3)2) = FC(F)(F)c1cc(CO*)cc(C(F)(F)F)c1
metric: GTP binding Emax (%)

binder: Y[dA]GF[dF]PLW-{OBzl(3,5-(CF3)2)} (also called TY007) [TyrDAlaGlyPheDPheProLeuTrpOBn(CF3)2]
metric: GTP binding Emax
value_observed: 22.9
--
binder: YAGFMPLW (D-Ala at 2; Met(O) at 5; C-terminal O-3,5-Bzl(CF3)2 ester, also called TY023) [TyrDAlaGlyPheMet(O)ProLeuTrpOBn(CF3)2]
metric: GTP binding Emax
value_observed: 52.8
--
binder: YAGFXPLW (D-Ala at 2; Nle at 5 (written X); C-terminal O-3,5-Bzl(CF3)2 ester, also called TY018) [TyrDAlaGlyPheNleProLeuTrpOBn(CF3)2]
metric: GTP binding Emax
value_observed: 131
--
binder: Y[dA]GFMPLW-{OBzl(3,5-(CF3)2)} (also called TY005) [TyrDAlaGlyPheMetProLeuTrpOBn(CF3)2]
metric: GTP binding Emax
value_observed: 47.6
